Tested on: H9c2;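 also: cell death induced by hydrogen peroxide oxidative stress; compound pretreatment for 60 min then peroxide exposure for 2 h; potency is for protecting the cells against peroxide damage rather than for killing them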;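 also: confirmatory concentration-response retest of ultra-high-throughput screening hits for modulation of myocardial damage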
method.description: cells
Format: functional, cell-based
experimental.conditions: Rattus norvegicus, H9c2, Myocardium
Calls of active or inactive are those of the source. Rule as the data show it: active = IC50 of 30 µM or less and inactive = more.
Possible outcomes: 1.0 (active), 0.0 (inactive)

{"columns": ["compound", "group.label"],
 "data": [
  ["CCN(CC)S(=O)(=O)c1cccc(C(=O)N/N=C/c2ccccn2)c1", 0.0],
  ["NC(=O)c1ccccc1OCC(=O)NC12CC3CC(CC(C3)C1)C2", 0.0],
  ["COc1ccc(OC)c(/C=N/Nc2nncn2/N=C/c2cc(OC)ccc2OC)c1", 0.0],
  ["O=C(COC(=O)CCc1nc(O)c2ccccc2n1)Nc1c(Cl)cccc1C(F)(F)F", 0.0],
  ["COc1cc(NC(=O)c2cc3nc(-c4ccccc4)cc(-c4ccccc4)n3n2)cc(OC)c1OC", 1.0],
  ["O=C(CN(C(=O)Cn1nnc(-c2cccs2)n1)c1cnc2ccccc2c1)NCC1CCCO1 (stereo not drawn)", 0.0],
  ["COc1cc(-c2cc(C(=O)Nc3cccc(C(C)=O)c3)c3ccccc3n2)cc(OC)c1OC", 0.0],
  ["Cc1ccc(C(C(=O)NCc2ccccc2)N(Cc2cccs2)C(=O)c2ccc3c(c2)OCCO3)cc1 (stereo not drawn)", 0.0]
]}
